Entry source: paper PMC6407917

Target: ACVR1 (Homo sapiens, UniProt Q04771)
Sequence (Q04771 1-509): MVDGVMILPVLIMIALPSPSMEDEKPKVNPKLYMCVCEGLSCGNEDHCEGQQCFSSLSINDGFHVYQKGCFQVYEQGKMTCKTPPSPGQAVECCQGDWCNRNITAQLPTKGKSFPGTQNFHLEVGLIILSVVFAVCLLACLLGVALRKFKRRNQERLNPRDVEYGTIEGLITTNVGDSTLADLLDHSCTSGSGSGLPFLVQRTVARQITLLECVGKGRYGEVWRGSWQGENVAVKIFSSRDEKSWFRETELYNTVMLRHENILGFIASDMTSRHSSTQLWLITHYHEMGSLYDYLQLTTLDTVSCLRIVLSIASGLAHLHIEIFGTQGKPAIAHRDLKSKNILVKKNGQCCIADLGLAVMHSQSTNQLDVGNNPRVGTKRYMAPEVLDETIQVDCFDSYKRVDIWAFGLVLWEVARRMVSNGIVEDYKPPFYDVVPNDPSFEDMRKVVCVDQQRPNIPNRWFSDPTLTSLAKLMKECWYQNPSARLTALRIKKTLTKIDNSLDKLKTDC
Assay: biochemical
Parameters: species or system HEK293/K-562/placenta mixed human extract; Kinobeads chemoproteomic competition binding, quantified by TMT LC-MS/MS, dose response up to 20 uM
pIC50: −log10 of the molar value.
Metric: pIC50

-- ask # query: pIC50 of entry COc1nc(N[C@H]2CC[C@H](NS(=O)(=O)CC(C)C)CC2)nc2[nH]nc(N3CCOC[C@H]3C)c12 [compound 39]
-- reply ≤ 4.70

====

biological target: CDK9 (Homo sapiens, UniProt P50750); assay: biochemical; set-up: species or system HEK293/K-562/placenta mixed human extract; Kinobeads chemoproteomic competition binding, quantified by TMT LC-MS/MS, dose response up to 20 uM
Sequence (P50750 whole entry): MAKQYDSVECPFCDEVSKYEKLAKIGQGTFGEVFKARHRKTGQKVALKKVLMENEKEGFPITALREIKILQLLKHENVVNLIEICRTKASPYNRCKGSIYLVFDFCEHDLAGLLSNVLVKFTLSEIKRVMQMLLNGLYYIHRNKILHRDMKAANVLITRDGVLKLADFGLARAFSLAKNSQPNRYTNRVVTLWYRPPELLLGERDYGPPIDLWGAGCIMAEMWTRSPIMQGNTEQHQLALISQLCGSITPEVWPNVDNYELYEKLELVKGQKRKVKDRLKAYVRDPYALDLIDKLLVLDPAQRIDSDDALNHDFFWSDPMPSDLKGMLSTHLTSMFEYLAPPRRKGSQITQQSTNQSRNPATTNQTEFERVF
pIC50: −log10 of the molar value.
Metric: pIC50

-- ask # query: pIC50 of entry `COc1nc(N[C@H]2CC[C@H](NS(=O)(=O)CC(C)C)CC2)nc2[nH]nc(N3CCOC[C@H]3C)c12`
-- reply ≤ 4.70

====

molecular target: DAPK1 (Homo sapiens); assay: biochemical; design: species or system HEK293/K-562/placenta mixed human extract; Kinobeads chemoproteomic competition binding, quantified by TMT LC-MS/MS, dose response up to 20 uM
Sequence (P53355 whole entry): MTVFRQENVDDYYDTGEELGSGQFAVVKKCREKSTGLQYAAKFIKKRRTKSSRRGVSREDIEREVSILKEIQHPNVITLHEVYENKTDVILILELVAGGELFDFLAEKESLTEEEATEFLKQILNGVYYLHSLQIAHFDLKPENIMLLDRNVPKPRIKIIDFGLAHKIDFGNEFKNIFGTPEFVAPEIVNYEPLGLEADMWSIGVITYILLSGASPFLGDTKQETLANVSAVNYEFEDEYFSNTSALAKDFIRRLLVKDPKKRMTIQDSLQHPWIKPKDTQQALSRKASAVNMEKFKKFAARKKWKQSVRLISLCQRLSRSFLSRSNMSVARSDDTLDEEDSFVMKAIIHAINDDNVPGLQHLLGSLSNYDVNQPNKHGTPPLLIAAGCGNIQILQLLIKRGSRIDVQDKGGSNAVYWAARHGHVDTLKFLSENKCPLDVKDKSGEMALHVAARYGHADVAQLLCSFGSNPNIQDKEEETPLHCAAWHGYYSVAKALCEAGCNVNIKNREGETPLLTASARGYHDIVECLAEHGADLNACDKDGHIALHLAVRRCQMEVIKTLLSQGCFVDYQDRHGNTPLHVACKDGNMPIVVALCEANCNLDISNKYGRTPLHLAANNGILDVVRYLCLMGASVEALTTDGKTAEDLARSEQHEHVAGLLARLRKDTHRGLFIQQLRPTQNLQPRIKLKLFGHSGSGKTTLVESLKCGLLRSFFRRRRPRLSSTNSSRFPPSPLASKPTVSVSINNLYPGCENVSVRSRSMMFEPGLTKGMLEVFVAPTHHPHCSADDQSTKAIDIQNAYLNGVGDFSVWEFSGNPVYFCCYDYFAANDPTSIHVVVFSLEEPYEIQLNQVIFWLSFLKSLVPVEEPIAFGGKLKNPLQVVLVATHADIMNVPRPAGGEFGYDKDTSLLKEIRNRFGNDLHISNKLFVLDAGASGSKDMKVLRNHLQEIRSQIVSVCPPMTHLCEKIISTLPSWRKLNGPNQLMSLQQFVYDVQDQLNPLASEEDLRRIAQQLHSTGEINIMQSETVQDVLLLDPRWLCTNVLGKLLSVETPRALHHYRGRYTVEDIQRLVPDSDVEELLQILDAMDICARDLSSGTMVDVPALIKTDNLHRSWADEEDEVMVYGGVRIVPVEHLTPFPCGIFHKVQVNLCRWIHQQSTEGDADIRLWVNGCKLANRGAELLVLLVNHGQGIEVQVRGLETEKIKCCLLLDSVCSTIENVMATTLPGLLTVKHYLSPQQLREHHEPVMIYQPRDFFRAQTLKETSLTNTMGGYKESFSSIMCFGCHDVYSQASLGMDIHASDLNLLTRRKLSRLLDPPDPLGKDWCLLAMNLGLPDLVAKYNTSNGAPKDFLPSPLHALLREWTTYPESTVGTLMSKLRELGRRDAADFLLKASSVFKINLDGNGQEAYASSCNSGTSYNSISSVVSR
Metric: IC50

-- ask # query: IC50 of entry `COc1ccccc1-c1n[nH]c2nc(N[C@H]3CC[C@H](NS(=O)(=O)CCC(F)(F)F)CC3)nc(OC)c12`
-- reply ≥ 20 µM

====

Sequence of the target: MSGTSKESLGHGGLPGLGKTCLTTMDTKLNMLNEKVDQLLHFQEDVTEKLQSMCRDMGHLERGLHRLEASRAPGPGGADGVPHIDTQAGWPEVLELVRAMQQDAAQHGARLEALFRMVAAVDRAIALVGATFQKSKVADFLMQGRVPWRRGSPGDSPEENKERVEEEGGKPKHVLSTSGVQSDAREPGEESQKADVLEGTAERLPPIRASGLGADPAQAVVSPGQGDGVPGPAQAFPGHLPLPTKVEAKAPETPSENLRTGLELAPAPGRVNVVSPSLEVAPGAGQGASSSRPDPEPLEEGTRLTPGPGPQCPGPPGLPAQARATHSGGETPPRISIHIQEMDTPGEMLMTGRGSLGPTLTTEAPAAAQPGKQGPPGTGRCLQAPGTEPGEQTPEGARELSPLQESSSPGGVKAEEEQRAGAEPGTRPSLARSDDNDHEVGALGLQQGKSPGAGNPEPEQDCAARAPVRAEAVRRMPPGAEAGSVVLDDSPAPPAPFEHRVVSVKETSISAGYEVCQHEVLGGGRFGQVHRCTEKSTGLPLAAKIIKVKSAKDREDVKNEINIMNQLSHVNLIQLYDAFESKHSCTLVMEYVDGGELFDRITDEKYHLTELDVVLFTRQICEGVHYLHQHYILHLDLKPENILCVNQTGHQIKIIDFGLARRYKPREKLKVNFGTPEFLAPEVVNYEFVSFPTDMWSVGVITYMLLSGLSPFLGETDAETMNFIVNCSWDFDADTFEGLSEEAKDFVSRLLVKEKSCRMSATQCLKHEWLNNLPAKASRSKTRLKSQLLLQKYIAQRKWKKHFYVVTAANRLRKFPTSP
pIC50: −log10 of the molar value.
Metric: pIC50

-- ask # query: pIC50 of entry COc1ccccc1-c1n[nH]c2nc(N[C@H]3CC[C@H](NS(=O)(=O)CCC(F)(F)F)CC3)nc(OC)c12 [compound 31]
-- reply ≤ 4.70
